Molecular target: Aromatase (Homo sapiens, UniProt P11511)
Sequence (P11511 whole entry): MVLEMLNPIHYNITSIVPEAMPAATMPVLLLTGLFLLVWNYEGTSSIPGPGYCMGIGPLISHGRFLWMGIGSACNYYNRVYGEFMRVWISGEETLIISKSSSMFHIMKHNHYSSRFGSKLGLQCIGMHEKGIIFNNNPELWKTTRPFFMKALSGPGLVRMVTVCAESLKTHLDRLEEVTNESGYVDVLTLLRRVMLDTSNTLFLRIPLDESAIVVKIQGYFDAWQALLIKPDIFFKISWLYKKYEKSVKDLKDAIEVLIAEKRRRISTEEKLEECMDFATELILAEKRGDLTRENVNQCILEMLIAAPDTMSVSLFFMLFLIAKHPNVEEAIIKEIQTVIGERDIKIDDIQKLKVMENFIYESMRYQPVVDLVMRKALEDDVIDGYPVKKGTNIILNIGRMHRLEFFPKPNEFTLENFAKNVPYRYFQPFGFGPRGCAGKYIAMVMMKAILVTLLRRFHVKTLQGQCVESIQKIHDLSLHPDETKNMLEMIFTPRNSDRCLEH
Assembled from different publications: IC50 for Aromatase (Homo sapiens, UniProt P11511).
Quantity Name: IC50 (nM)

Known results for compounds:
CCn1ccc2c3c(Cn4ccnc4)cc(-c4ccccc4)nc3ccc21	3.1
N#Cc1ccc(N(Cc2ccc(Br)cc2)n2cnnc2)cc1	0.12
CC(c1ccncc1)c1cc2c3c(c1)CCN3C(=O)CC2 (stereo unspecified)	1500

P. c1ccc(-c2ccc(OCc3cn(C(c4ccccc4)c4ccccc4)nn3)cc2)cc1
Q. O=[N+]([O-])c1ccc(-c2cccnc2)c(OCCCc2ccccc2)c1
Input: Of the two listed items, P and Q , which carries the larger IC50 figure? Answer = label.
Output: P

P. N#Cc1ccc(Cn2cc(COc3ccc(Cl)cc3)nn2)cc1
Q. N#Cc1ccc(C(c2ccc(C#N)cc2)n2cc(COc3ccccc3)nn2)cc1
Input: Of the two listed items, P and Q , which carries the larger IC50 figure? Answer = label.
Output: Q
(Q: 11000 nM, P: 3910 nM)
